// data source = patent US20240247015A1

Each entry below lists one item and its recorded pIC50 value.
assayTarget: interaction of human SOS1 (SOS1) with human K-RasG12C (Homo sapiens (Human))
measurementNotes: Biochemical assay: hK-RasG12C interaction assay with hSOS1 (HTRF)
condition: GST-hK-RasG12C with His-hSOS1, 60 min incubation at 20° C., mean, read-out: K-RasG12C - SOS interaction assay IC50 (mean)
pIC50: −log10 of the molar value.
attributeMeasured: pIC50

[
  {
    "compound": "Cc1nc(N[C@H](C)c2cc(N)cc(C(F)(F)F)c2)c2cc(P(C)(C)=O)ncc2n1",
    "assayTarget": "interaction of human SOS1 (SOS1) with human K-RasG12C (Homo sapiens (Human))",
    "attributeMeasured": "pIC50",
    "resultNumber": 7.87
  },
  {
    "compound": "Cc1nc(N[C@H](C)c2cccc(C(F)(F)F)c2C)c2cc(P3(=O)CCN(c4cnn(C)c4)CC3)ncc2n1",
    "assayTarget": "interaction of human SOS1 (SOS1) with human K-RasG12C (Homo sapiens (Human))",
    "attributeMeasured": "pIC50",
    "resultNumber": 7.95
  },
  {
    "compound": "CCP(C)(=O)c1cc2c(N[C@H](C)c3cccc(C(F)(F)CO)c3F)nc(C)nc2cn1 (single isomer, unassigned) [Example 131]",
    "assayTarget": "interaction of human SOS1 (SOS1) with human K-RasG12C (Homo sapiens (Human))",
    "attributeMeasured": "pIC50",
    "resultNumber": 7.94
  },
  {
    "compound": "COc1nc2nc(C)nc(N[C@H](C)c3cccc(C(F)(F)F)c3C)c2cc1P(C)(C)=O",
    "assayTarget": "interaction of human SOS1 (SOS1) with human K-RasG12C (Homo sapiens (Human))",
    "attributeMeasured": "pIC50",
    "resultNumber": 7.76
  },
  {
    "compound": "CCP(C)(=O)c1cc2c(N[C@H](C)c3cccc(C(F)(F)C(C)O)c3F)nc(C)nc2cn1 (single isomer, unassigned) [Example 73]",
    "assayTarget": "interaction of human SOS1 (SOS1) with human K-RasG12C (Homo sapiens (Human))",
    "attributeMeasured": "pIC50",
    "resultNumber": 7.95
  },
  {
    "compound": "CC(=O)N1CCP(=O)(c2cc3c(N[C@H](C)c4cccc(C(F)(F)F)c4C)nc(C(F)(F)F)nc3cn2)CC1",
    "assayTarget": "interaction of human SOS1 (SOS1) with human K-RasG12C (Homo sapiens (Human))",
    "attributeMeasured": "pIC50",
    "resultNumber": 7.92
  }
]

---

assayTarget: interaction of human SOS1 (SOS1) with human K-RasG12C (Homo sapiens (Human), UniProt Q07889)
Sequence (Q07889 564-1049 limits assumed): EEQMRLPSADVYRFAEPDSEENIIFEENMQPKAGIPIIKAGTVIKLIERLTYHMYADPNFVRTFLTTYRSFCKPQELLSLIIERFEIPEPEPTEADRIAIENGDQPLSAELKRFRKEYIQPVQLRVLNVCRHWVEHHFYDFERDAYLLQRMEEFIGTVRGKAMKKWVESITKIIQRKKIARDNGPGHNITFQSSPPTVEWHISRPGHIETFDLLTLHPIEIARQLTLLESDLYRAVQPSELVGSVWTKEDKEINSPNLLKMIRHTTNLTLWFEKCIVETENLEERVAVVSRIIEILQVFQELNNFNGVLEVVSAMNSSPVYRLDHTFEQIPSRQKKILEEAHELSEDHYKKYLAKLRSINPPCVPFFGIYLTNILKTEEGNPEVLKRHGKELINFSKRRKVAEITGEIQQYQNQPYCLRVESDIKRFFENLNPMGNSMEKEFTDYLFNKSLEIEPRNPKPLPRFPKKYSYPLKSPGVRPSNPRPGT
measurementNotes: Biochemical assay: hK-RasG12C interaction assay with hSOS1 (HTRF)
Type: binding
condition: GST-hK-RasG12C with His-hSOS1, 60 min incubation at 20° C., mean, read-out: K-RasG12C - SOS interaction assay IC50 (mean)

[
  {
    "molecule": "Cc1nc(N[C@H](C)c2cccc(C(F)(F)F)c2C)c2cc(P3(=O)CCN(C(=O)C4(O)CC4)CC3)ncc2n1",
    "IC50 / nM": 5.62
  },
  {
    "molecule": "Cc1nc(N[C@H](C)c2cccc(C(F)(F)C(C)O)c2F)c2cc(P(C)(=O)C(C)C)ncc2n1 (single isomer, unassigned) [Example 83]",
    "IC50 / nM": 31
  },
  {
    "molecule": "Cc1nc(N[C@H](C)c2cccc(C(F)(F)C(O)C(C)C)c2F)c2cc(P(C)(C)=O)ncc2n1 (single isomer, unassigned) [Example 66]",
    "IC50 / nM": 25.1
  },
  {
    "molecule": "Cc1nc(N[C@H](C)c2cccc(C(F)F)c2F)c2cc(P3(=O)CCN(C(=O)C4(O)CC4)CC3)ncc2n1",
    "IC50 / nM": 11.4
  },
  {
    "molecule": "CC(=O)N1CCP(=O)(c2cc3c(N[C@H](C)c4cccc(C(F)(F)F)c4Cl)nc(C)nc3cn2)CC1",
    "IC50 / nM": 8.09
  },
  {
    "molecule": "Cc1nc(N[C@H](C)c2cccc(C(F)(F)F)c2F)c2cc(P(C)(C)=O)ncc2n1",
    "IC50 / nM": 26.2
  },
  {
    "molecule": "CC(=O)N1CCP(=O)(c2cc3c(N[C@H](C)c4cccc(C(F)F)c4)nc(C)nc3cn2)CC1",
    "IC50 / nM": 19.3
  }
]

---

Each entry below lists one item and its recorded pIC50 value.
assayTarget: interaction of human SOS1 (SOS1) with human K-RasG12C (Homo sapiens (Human))
measurementNotes: Biochemical assay: hK-RasG12C interaction assay with hSOS1 (HTRF)
condition: GST-hK-RasG12C with His-hSOS1, 60 min incubation at 20° C., mean, read-out: K-RasG12C - SOS interaction assay IC50 (mean)
pIC50: −log10 of the molar value.

[
  {
    "compound": "Cc1nc(N[C@H](C)c2cccc(C(F)(F)F)c2C)c2cc(P3(=O)CCN(C(=O)[C@@H](C)O)CC3)ncc2n1 [Example 166]",
    "assayTarget": "interaction of human SOS1 (SOS1) with human K-RasG12C (Homo sapiens (Human))",
    "pIC50": 8.32
  },
  {
    "compound": "Cc1nc(N[C@H](C)c2cccc(C(F)(F)C(C)(C)O)c2F)c2cc(P(C)(=O)C(C)C)ncc2n1 (single isomer, unassigned) [Example 72]",
    "assayTarget": "interaction of human SOS1 (SOS1) with human K-RasG12C (Homo sapiens (Human))",
    "pIC50": 7.61
  },
  {
    "compound": "Cc1nc(N[C@H](C)c2cccc(C(F)(F)C(C)(C)O)c2F)c2cc(P(C)(=O)C(C)C)ncc2n1 (stereo partly drawn) [Example 70]",
    "assayTarget": "interaction of human SOS1 (SOS1) with human K-RasG12C (Homo sapiens (Human))",
    "pIC50": 7.56
  },
  {
    "compound": "Cc1nc(N[C@H](C)c2cccc(C(F)(F)C(C)(C)O)c2F)c2cc(P(=O)(C(C)C)C(C)C)c(C)nc2n1 [Example 21]",
    "assayTarget": "interaction of human SOS1 (SOS1) with human K-RasG12C (Homo sapiens (Human))",
    "pIC50": 6.92
  },
  {
    "compound": "Cc1nc(N[C@H](C)c2cccc(C(F)(F)F)c2C)c2cc(P(C)(C)=O)c(C(F)(F)F)nc2n1 [Example 22]",
    "assayTarget": "interaction of human SOS1 (SOS1) with human K-RasG12C (Homo sapiens (Human))",
    "pIC50": 7.73
  },
  {
    "compound": "Cc1nc(N[C@H](C)c2cccc(C(F)(F)F)c2C)c2cc(P(=O)(C(C)C)C(C)C)ncc2n1 [Example 98]",
    "assayTarget": "interaction of human SOS1 (SOS1) with human K-RasG12C (Homo sapiens (Human))",
    "pIC50": 6.86
  },
  {
    "compound": "Cc1nc(N[C@H](C)c2cccc(C(F)F)c2F)c2cc(P3(=O)CCN(C(=O)c4cnn(C)c4)CC3)ncc2n1 [Example 161]",
    "assayTarget": "interaction of human SOS1 (SOS1) with human K-RasG12C (Homo sapiens (Human))",
    "pIC50": 7.87
  },
  {
    "compound": "CC(=O)N1CCP(=O)(c2cc3c(N[C@H](C)c4cccc(C(F)(F)CO)c4F)nc(C)nc3cn2)CC1 [Example 42]",
    "assayTarget": "interaction of human SOS1 (SOS1) with human K-RasG12C (Homo sapiens (Human))",
    "pIC50": 8.31
  },
  {
    "compound": "[2H]C([2H])([2H])[C@]([2H])(Nc1nc(C)nc2cnc(P3(=O)CCN(C(C)=O)CC3)cc12)c1cccc(C(F)(F)F)c1C [Example 138]",
    "assayTarget": "interaction of human SOS1 (SOS1) with human K-RasG12C (Homo sapiens (Human))",
    "pIC50": 8.22
  },
  {
    "compound": "Cc1nc(N[C@H](C)c2cccc(C(F)(F)F)c2C)c2cc(P(=O)(C(C)C)C(C)C)c(C)nc2n1 [Example 102]",
    "assayTarget": "interaction of human SOS1 (SOS1) with human K-RasG12C (Homo sapiens (Human))",
    "pIC50": 7.10
  },
  {
    "compound": "Cc1nc(N[C@H](C)c2cccc(C(F)(F)F)c2C)c2cc(P3(=O)CCN(C(=O)C4(CO)CC4)CC3)ncc2n1 [Example 178]",
    "assayTarget": "interaction of human SOS1 (SOS1) with human K-RasG12C (Homo sapiens (Human))",
    "pIC50": 8.10
  },
  {
    "compound": "CCOC(=O)N1CCP(=O)(c2cc3c(N[C@H](C)c4cccc(C(F)(F)F)c4C)nc(C)nc3cn2)CC1 [Example 189]",
    "assayTarget": "interaction of human SOS1 (SOS1) with human K-RasG12C (Homo sapiens (Human))",
    "pIC50": 7.69
  },
  {
    "compound": "Cc1nc(N[C@H](C)c2cccc(C(F)(F)F)c2Cl)c2cc(P(C)(C)=O)ncc2n1 [Example 120]",
    "assayTarget": "interaction of human SOS1 (SOS1) with human K-RasG12C (Homo sapiens (Human))",
    "pIC50": 7.44
  },
  {
    "compound": "Cc1nc(N[C@H](C)c2cccc(C(F)(F)C(C)(C)O)c2F)c2cc(P(C)(=O)C(C)C)ncc2n1 (single isomer, unassigned) [Example 71]",
    "assayTarget": "interaction of human SOS1 (SOS1) with human K-RasG12C (Homo sapiens (Human))",
    "pIC50": 7.45
  },
  {
    "compound": "Cc1nc(N[C@H](C)c2cccc(C(F)(F)F)c2C)c2cc(P3(=O)CCN(Cc4ccccc4)CC3)ccc2n1 [Example 105]",
    "assayTarget": "interaction of human SOS1 (SOS1) with human K-RasG12C (Homo sapiens (Human))",
    "pIC50": 6.93
  },
  {
    "compound": "CCC(O)C(F)(F)c1cccc([C@@H](C)Nc2nc(C)nc3cnc(P(C)(C)=O)cc23)c1F (single isomer, unassigned) [Example 89]",
    "assayTarget": "interaction of human SOS1 (SOS1) with human K-RasG12C (Homo sapiens (Human))",
    "pIC50": 8.22
  },
  {
    "compound": "Cc1nc(N[C@H](C)c2cccc(C(F)(F)F)c2C)c2cc(P3(=O)CCN(C(=O)CC#N)CC3)ncc2n1 [Example 162]",
    "assayTarget": "interaction of human SOS1 (SOS1) with human K-RasG12C (Homo sapiens (Human))",
    "pIC50": 6.57
  },
  {
    "compound": "COC(C)(C)C(F)(F)c1cccc([C@@H](C)Nc2nc(C)nc3cnc(P4(=O)CCN(C(C)=O)CC4)cc23)c1F [Example 140]",
    "assayTarget": "interaction of human SOS1 (SOS1) with human K-RasG12C (Homo sapiens (Human))",
    "pIC50": 7.94
  },
  {
    "compound": "COCC(F)(F)c1cccc([C@@H](C)Nc2nc(C)nc3cnc(P4(=O)CCN(C(C)=O)CC4)cc23)c1F [Example 139]",
    "assayTarget": "interaction of human SOS1 (SOS1) with human K-RasG12C (Homo sapiens (Human))",
    "pIC50": 8.27
  },
  {
    "compound": "Cc1nc(N[C@H](C)c2cccc(C(F)(F)F)c2C)c2cc(P3(=O)CCN(C(=O)C4CC(F)(F)C4)CC3)ncc2n1 [Example 170]",
    "assayTarget": "interaction of human SOS1 (SOS1) with human K-RasG12C (Homo sapiens (Human))",
    "pIC50": 7.95
  },
  {
    "compound": "CC(=O)N1CCP(=O)(c2cc3c(N[C@H](C)c4cc(C)cc(C(F)(F)F)c4C)nc(C)nc3cn2)CC1 [Example 58]",
    "assayTarget": "interaction of human SOS1 (SOS1) with human K-RasG12C (Homo sapiens (Human))",
    "pIC50": 8.20
  },
  {
    "compound": "Cc1nc(N[C@H](C)c2cccc(C(F)(F)C(C)O)c2F)c2cc(P3(=O)CCCC3)ncc2n1 (single isomer, unassigned) [Example 112]",
    "assayTarget": "interaction of human SOS1 (SOS1) with human K-RasG12C (Homo sapiens (Human))",
    "pIC50": 7.95
  },
  {
    "compound": "CC(=O)N1CCP(=O)(c2cnc3nc(C)nc(N[C@H](C)c4cccc(C(F)(F)F)c4C)c3c2)CC1 [Example 147]",
    "assayTarget": "interaction of human SOS1 (SOS1) with human K-RasG12C (Homo sapiens (Human))",
    "pIC50": 8.35
  },
  {
    "compound": "Cc1nc(N[C@H](C)c2cccc(C(F)(F)F)c2C)c2cc(P(C)(C)=O)ccc2n1 [Example 106]",
    "assayTarget": "interaction of human SOS1 (SOS1) with human K-RasG12C (Homo sapiens (Human))",
    "pIC50": 7.79
  },
  {
    "compound": "CNC(=O)C(F)(F)c1cccc([C@@H](C)Nc2nc(C)nc3cnc(P(C)(C)=O)cc23)c1F [Example 51]",
    "assayTarget": "interaction of human SOS1 (SOS1) with human K-RasG12C (Homo sapiens (Human))",
    "pIC50": 7.06
  },
  {
    "compound": "Cc1nc(N[C@H](C)c2cccc(C(F)(F)[C@H](O)C(C)(C)C)c2F)c2cc(P(C)(C)=O)ncc2n1 (relative stereo) [Example 137]",
    "assayTarget": "interaction of human SOS1 (SOS1) with human K-RasG12C (Homo sapiens (Human))",
    "pIC50": 8.39
  },
  {
    "compound": "Cc1nc(N[C@H](C)c2cccc(C(F)(F)F)c2C)c2cc(P3(=O)CCCC3)ncc2n1 [Example 99]",
    "assayTarget": "interaction of human SOS1 (SOS1) with human K-RasG12C (Homo sapiens (Human))",
    "pIC50": 7.49
  }
]
